A collection of binders and their measured Binding Activity [%]
experimental_system: T1, Dog Semaphorin3A-Sema Domain, TPP-19121 (dog, UniProt Q63548 21-569 (rat entry), limits assumed)
T1 construct: produced inhouse
T1 chain: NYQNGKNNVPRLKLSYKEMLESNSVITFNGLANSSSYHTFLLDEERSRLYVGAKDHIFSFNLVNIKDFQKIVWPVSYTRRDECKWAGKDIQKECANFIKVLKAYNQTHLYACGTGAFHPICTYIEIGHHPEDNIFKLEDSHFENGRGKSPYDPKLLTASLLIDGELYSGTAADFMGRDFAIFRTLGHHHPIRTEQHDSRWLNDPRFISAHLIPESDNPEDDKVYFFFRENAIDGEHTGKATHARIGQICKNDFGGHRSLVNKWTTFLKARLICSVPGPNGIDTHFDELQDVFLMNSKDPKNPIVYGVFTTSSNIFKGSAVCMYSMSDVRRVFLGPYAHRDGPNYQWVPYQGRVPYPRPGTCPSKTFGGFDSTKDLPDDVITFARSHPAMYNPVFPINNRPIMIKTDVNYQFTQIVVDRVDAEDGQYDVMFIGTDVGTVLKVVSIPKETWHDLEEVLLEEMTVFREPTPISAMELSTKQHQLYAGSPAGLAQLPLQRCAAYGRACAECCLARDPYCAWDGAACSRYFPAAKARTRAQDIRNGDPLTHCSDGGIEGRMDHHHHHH
assay_comment: SPR, captured antibody, Sema3A domain analyte
Enter the number, and then the unit.

INPUT: Fill in Binding Activity [%] for record TPP-30790 (antibody, human IgG1, kappa, V domains shown, prior art, WO 2020/225400; also called BI clone III; Böhringer (BI) Clone III) VH: EVQLVESGGGLVQLGGSLRLSCAASGFTFSSYYMSWVRQAPGKGLEWVSTIIKSGGYAYYPDSVKDRFTISRDNSKNTLYLQMNSLRAEDTAVYYCVKGGQGAMDYWGQGTTVTVSS VL: EIVLTQSPATLSLSPGERATLSCRASQSIGDYLHWYQQKPGQAPRLLIYYASQSISGIPARFSGSGSGTDFTLTISSLEPEDFAVYYCQQGYSFPYTFGGGTKLEIKR
OUTPUT: 92%

INPUT: Fill in Binding Activity [%] for record TPP-15374 (antibody, human IgG1, lambda, V domains shown, human IgG1; also called IgG1, hit from panning; parental mAb) VH: EVQLLESGGGLVQPGGSLRLSCAASGFTFSSYEMNWVRQAPGKGLEWVSGISWNSGSIGYADSVKGRFTISRDNSKNTLYLQMNSLRAEDTAVYYCARSGYSSSWFDPDFDYWGQGTLVTVSS VL: QSVLTQPPSASGTPGQRVTISCTGSSSNIGAGYDVHWYQQLPGTAPKLLIYGNSNRPSGVPDRFSGSKSGTSASLAISGLRSEDEADYYCSSYAGSNPYVVFGGGTKLTVLG
OUTPUT: 98%

INPUT: Fill in Binding Activity [%] for record TPP-17755 (antibody, human IgG1, lambda, V domains shown, also called Samsung; Samsung Prior Art F11) VH: EVQLLESGGGLVQTGGSLRLSCAASGFTFSDYAMSWVRQAPGKGLEWVSWIYYDSGSKYYADSVKGRFTISRDNSKNTLYLQMNSLRAEDTAVYYCAKLNGDFDYWGQGTLVTVSS VL: QSVLTQPPSASGTPGQRVTISCSGSSSNIGNNDVSWYQQLPGTAPKLLIYADSHRPSGVPDRFSGSKSGTSASLAISGLRSEDEADYYCGAWDSSLSGYVFGGGTKLTVLG
OUTPUT: 55%

INPUT: Fill in Binding Activity [%] for record TPP-30791 (antibody, human IgG1, kappa, V domains shown, prior art, WO 2020/225400; also called BI clone IV; Böhringer (BI) Clone IV) VH: EVQLVESGGGLLQLGGSLRLSCAASGFTFSSYYMSWVRQAPGKGLEWVSTIIKSGGYAYYPDSVKDRFTISRDNSKNTLNLQMNSLRAEDTAVYYCVKGGQGAMDYWGQGTTVTVSS VL: EIVLTQSPATLSLSPGERATLSCRASQSIGDYLHWYQQKPGQAPRLLIKYASQSISGIPARFSGSGSGTDFTLTISSLEPEDFAVYYCQQGYSFPYTFGGGTKLEIKR
OUTPUT: 106%

INPUT: Fill in Binding Activity [%] for record TPP-30789 (antibody, human IgG1, kappa, V domains shown, prior art, WO 2020/225400; also called BI clone II; Böhringer (BI) Clone II) VH: EVQLVESGGGLVQPGGSLRLSCAASGFPFSSYYMSWVRQAPGKGLEWVSTIIKSGGYAYYPDSVKDRFTISRDNSKNTLYLQMSSLRAEDTAVYYCVRGGQGAMDYWGQGTTVTVSS VL: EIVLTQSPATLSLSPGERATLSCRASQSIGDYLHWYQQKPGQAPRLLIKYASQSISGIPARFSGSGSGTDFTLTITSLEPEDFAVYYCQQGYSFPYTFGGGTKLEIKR
OUTPUT: 102%

INPUT: Fill in Binding Activity [%] for record TPP-30788 (antibody, human IgG1, kappa, V domains shown, prior art, WO 2020/225400; also called BI clone I; Böhringer (BI) Clone I) VH: EVQLVESGGGLVQPGGSLRLSCAASGFTFSSYYMSWVRQAPGKGLEWVSTIIKSGGYAYYPDSVKDRFTISRDNSKNTLYLQMSSLRAEDTAVYYCVRGGQGAMDYWGQGTTVTVSS VL: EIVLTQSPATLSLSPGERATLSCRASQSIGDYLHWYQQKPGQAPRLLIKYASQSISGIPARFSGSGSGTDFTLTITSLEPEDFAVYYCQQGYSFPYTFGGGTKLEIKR
OUTPUT: 106%

Values were extracted from patent US20240254222A1.
